test-name: Solubility testing of peptides at different pH
Type: physicochemical
measurement-setup: 50 mM phosphate buffer pH 7.4; target concentration 1 mg/ml; 2 hours agitation; read-out: Solubility Buffer pH 7.4
Starred links: 1 amine or outer side, 2 acyl side, 3 side chain; linkers in the order of their positions; H or OH if unused. Positions of bridges follow the written chain, without caps; N, C: chain ends. Non-standard residues stand in square brackets, D forms with d. Residues, ends and D or L forms follow the SMILES beside them. *: point of attachment. X3 = CN(CCCCC(=O)N[C@@H](CS[*:2])C(=O)[*:1])[*:3]; 2Nal = N[C@@H](Cc1ccc2ccccc2c1)C(=O)O; AEF = NCCOc1ccc(C[C@H](N)C(=O)O)cc1; X4 = CN(CCCCCC(=O)[*:2])[*:1]; αMeL = CC(C)C[C@](C)(N)C(=O)O; Thp = NC1(C(=O)O)CCOCC1; Me2NCH2CH2 = CN(C)CC*
A collection of compounds and their measured solubility at 2 h

C[C@@H](O)[C@@H]1NC(=O)[C@H](CC(N)=O)NC(=O)[C@@H]2CSSC[C@H](NC(=O)[C@H](CCC(N)=O)NC(=O)[C@H](Cc3c[nH]c4ccccc34)NC1=O)C(=O)N[C@@H](Cc1ccc(OCCN)cc1)C(=O)N[C@H](Cc1ccc3ccccc3c1)C(=O)NC(C)(C)C(=O)N[C@H](C(=O)N[C@@H](CC(N)=O)C(=O)N[C@@H](CC(N)=O)C(N)=O)CCC(=O)NCCCCC(=O)N2 | ≥ 1230 µg/mL
CC(=O)N[C@H]1CCCCNC(=O)[C@@H]2CSSC[C@H](NC(=O)[C@H](CCC(N)=O)NC(=O)[C@H](Cc3c[nH]c4ccccc34)NC1=O)C(=O)N[C@@H](Cc1ccc(OCCN)cc1)C(=O)N[C@@H](Cc1ccc3ccccc3c1)C(=O)NC1(CCOCC1)C(=O)N[C@H](C(=O)N[C@@H](C)C(=O)NCC(N)=O)CCC(=O)N(C)CCCCC(=O)N2 [compound 17] (Ac-KWQC[AEF][2Nal][Thp]EAG-NH2; linker 1-4-8 via X3) | ≥ 970 µg/mL

Here's the next entry for you.
solubility at 2 h measured on CC(C)C[C@@H](NC(=O)[C@H](CC(N)=O)NC(=O)[C@@H]1CC(=O)N(C)CCCCCC(=O)N[C@H]2CSSC[C@H](NC(=O)[C@H](CCC(N)=O)NC(=O)[C@H](Cc3c[nH]c4ccccc34)NC(=O)[C@H]([C@@H](C)O)NC(=O)[C@H](CC(N)=O)NC2=O)C(=O)N[C@@H](Cc2ccc(OCCN(C)C)cc2)C(=O)N[C@@H](Cc2ccc3ccccc3c2)C(=O)N[C@@](C)(CC(C)C)C(=O)N1)C(N)=O [compound 40] ([X4]CNTWQCY(Me2NCH2CH2)[2Nal][αMeL]DN[dL]-NH2; disulfide 2-7; lactam N-11) = < 10 µg/mL
